experimental-details: endothelial E-selectin expression blockers – imaging, HUVEC, immunofluorescence, MLSMR starter and 10KST1 sets, primary screen (AID 487);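 also: 100% = median nuclei count of all wells on the same plate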
recorded-conditions: HUVEC TNFalpha-induced E-selectin immunofluorescence imaging, at 2 µM; measured here: cell number, toxicity
For each of the compounds below, state its nuclei count.
Only the number, expressed in %, is required.

## Task Which nuclei count is reported for this compound? CC(C)OC(=O)CSc1nnc(Cc2ccccc2)n1Cc1ccco1
## Result 100

## Task Now the same for CCOC(=O)c1ccc(NC(=O)NC(C)C2CCCO2)cc1 (stereo not drawn)
## Result 86.6

## Task Now the same for O=C(Nc1nccs1)c1ccc(Cl)c(S(=O)(=O)N2CCCCC2)c1
## Result 117

## Task Now the same for Cn1c(=O)c2c(ncn2CC(O)CO)n(C)c1=O (stereo not drawn)
## Result 127

## Task Now the same for COc1ccc(NC(=O)CCNC(=O)Cn2ccc3ccccc3c2=O)c(OC)c1
## Result 115

## Task Now the same for Cc1cc(C)nc(NS(=O)(=O)c2ccc(N)cc2)n1
## Result 107

## Task Now the same for Cc1nc2ccccn2c1/C(O)=C1\C(=O)C(=O)N(CCN2CCOCC2)C1c1cccs1 (stereo not drawn)
## Result 116

## Task Now the same for CCN(CC)c1ccc(CNc2ccc(Br)cn2)cc1
## Result 122

## Task Now the same for O=C(Cn1nc(C(F)(F)F)c2c1CCCC2)NCCN1CCOCC1
## Result 93.4

## Task Now the same for CCCCn1nnnc1SCC(=O)Nc1cccc(C)n1
## Result 107

## Task Now the same for COc1ccc(N2CCN(C(=O)CSc3nnc4n3C(C)(C)Cc3ccccc3-4)CC2)cc1
## Result 104

## Task Now the same for O=C(O)c1ccccc1C(=O)Nc1ccccc1
## Result 143

## Task Now the same for CCOC(=O)c1ccccc1NC(=O)CSc1nc2c(c(=O)n(C)c(=O)n2C)n1C
## Result 102

## Task Now the same for CCCN(CCC)CCNC(=O)C(NS(=O)(=O)c1ccc2c(c1)CCC(=O)N2)c1ccccc1 (stereo not drawn)
## Result 112

## Task Now the same for O=C(O)C1CSC2c3ccccc3C(=O)N12 (stereo not drawn)
## Result 107

## Task Now the same for Cc1onc(-c2c(Cl)cccc2Cl)c1C(=O)NCCN1CCOCC1
## Result 108

## Task Now the same for CC1CCCC(NC(=O)CN2CCN(Cc3ccc(Cl)cc3)C2=O)C1C (stereo not drawn)
## Result 98

## Task Now the same for O=C(O)c1[nH]nc2c1COc1ccccc1-2
## Result 102

## Task Now the same for Cn1c(SC/C=C/c2ccccc2)nnc1-c1cnccn1
## Result 95.1

## Task Now the same for Cc1cc(S(=O)(=O)NC2CCCCC2)ccc1OCC(=O)NCc1ccccn1
## Result 106

## Task Now the same for O=C1NCCCc2c1no[n+]2[O-]
## Result 107

## Task Now the same for Cc1ccccc1NC(=O)C1Cc2ccccc2C(=O)O1 (stereo not drawn)
## Result 79.8

## Task Now the same for CCOC(=O)C(CC)(CCC(=O)O)c1csc(N)n1 (stereo not drawn)
## Result 98.1

## Task Now the same for COC(=O)c1sc(NC(=O)c2ccoc2C)nc1C
## Result 98

## Task Now the same for CCOC(=O)COc1ccc(S(=O)(=O)Nc2ccc3c(c2)OCO3)cc1
## Result 115

## Task Now the same for COc1nc(N2CCOCC2)nc(-n2cccc2)n1
## Result 80.1

## Task Now the same for CCCCOC(=O)Nc1nc2ccc(OC)cc2s1
## Result 108

## Task Now the same for N#CC1=C(N)n2c(s/c(=C\c3ccco3)c2=O)=C(C#N)C1c1ccco1 (stereo not drawn)
## Result 116

## Task Now the same for Cc1cc2ncc(C(=O)Nc3ccccc3)c(C)n2n1
## Result 93.8

## Task Now the same for CC(C)CCNC(=O)NC(=O)CSc1nnc(COc2ccccc2Cl)o1
## Result 126

## Task Now the same for CCS(=O)(=O)N1CCC(C(=O)NCc2cccs2)CC1
## Result 102

## Task Now the same for CC1CCN(C(=O)c2ccc(C(=O)N3CCC(C)CC3)cc2)CC1
## Result 76.8

## Task Now the same for Cc1cccc(C)c1OCC(=O)Nc1cccc(NC(=O)c2ccco2)c1
## Result 96.3

## Task Now the same for COc1ccc(Cn2c(C)nc3c(c2=O)c2nc4ccccc4nc2n3Cc2ccco2)cc1
## Result 119

## Task Now the same for O=C(CCNC(=O)Cn1ccc2ccccc2c1=O)NCCN1CCN(c2ccccc2F)CC1
## Result 104

## Task Now the same for Cc1ccc(Nc2nc(CSc3nnnn3C)cs2)cc1
## Result 109

## Task Now the same for Cc1ccc2c(c1)-c1cc(C)nn1C(c1ccc3c(c1)OCO3)N2 (stereo not drawn)
## Result 130

## Task Now the same for COc1ccc(CCN(C)CCCC(C#N)(c2ccc(OC)c(OC)c2)C(C)C)cc1OC (stereo not drawn)
## Result 114

## Task Now the same for CCn1c(=O)n(CC(=O)Nc2cc(OC)ccc2OC)c(=O)c2ccccc21
## Result 99.5

## Task Now the same for NC(=O)c1c(-c2ccccc2)oc2ccc(O)cc12
## Result 92.8

## Task Now the same for COCCNC(=O)C(C)OC(=O)c1nsc(Cl)c1Cl (stereo not drawn)
## Result 115

## Task Now the same for Nc1ncnc2nc(SCCN3CCCCC3)[nH]c12
## Result 92.4

## Task Now the same for Cc1c(C(=O)O)sc(=S)n1-c1ccccc1
## Result 141

## Task Now the same for Cc1ccc(-c2nc(-c3cccnc3)no2)c(C)c1
## Result 105

## Task Now the same for c1ccc(OCCOc2ncnc3sccc23)cc1
## Result 125

## Task Now the same for CCSc1nnc(NC(=O)c2cc(C)oc2C)s1
## Result 56.1

## Task Now the same for Cc1onc(-c2ccccc2)c1C(=O)Nc1ccnn1C1CCCCC1
## Result 81.7

## Task Now the same for CC(C(=O)N1CCc2ccccc21)N1CCc2ccccc2C1 (stereo not drawn)
## Result 99.9
